Target: Ba/F3 EGFR-V769_D770insASV (Homo sapiens, UniProt P00533, DUP767-769, cells depend on it)
Sequence (P00533 with tags, fused parts or gaps DUP767-769): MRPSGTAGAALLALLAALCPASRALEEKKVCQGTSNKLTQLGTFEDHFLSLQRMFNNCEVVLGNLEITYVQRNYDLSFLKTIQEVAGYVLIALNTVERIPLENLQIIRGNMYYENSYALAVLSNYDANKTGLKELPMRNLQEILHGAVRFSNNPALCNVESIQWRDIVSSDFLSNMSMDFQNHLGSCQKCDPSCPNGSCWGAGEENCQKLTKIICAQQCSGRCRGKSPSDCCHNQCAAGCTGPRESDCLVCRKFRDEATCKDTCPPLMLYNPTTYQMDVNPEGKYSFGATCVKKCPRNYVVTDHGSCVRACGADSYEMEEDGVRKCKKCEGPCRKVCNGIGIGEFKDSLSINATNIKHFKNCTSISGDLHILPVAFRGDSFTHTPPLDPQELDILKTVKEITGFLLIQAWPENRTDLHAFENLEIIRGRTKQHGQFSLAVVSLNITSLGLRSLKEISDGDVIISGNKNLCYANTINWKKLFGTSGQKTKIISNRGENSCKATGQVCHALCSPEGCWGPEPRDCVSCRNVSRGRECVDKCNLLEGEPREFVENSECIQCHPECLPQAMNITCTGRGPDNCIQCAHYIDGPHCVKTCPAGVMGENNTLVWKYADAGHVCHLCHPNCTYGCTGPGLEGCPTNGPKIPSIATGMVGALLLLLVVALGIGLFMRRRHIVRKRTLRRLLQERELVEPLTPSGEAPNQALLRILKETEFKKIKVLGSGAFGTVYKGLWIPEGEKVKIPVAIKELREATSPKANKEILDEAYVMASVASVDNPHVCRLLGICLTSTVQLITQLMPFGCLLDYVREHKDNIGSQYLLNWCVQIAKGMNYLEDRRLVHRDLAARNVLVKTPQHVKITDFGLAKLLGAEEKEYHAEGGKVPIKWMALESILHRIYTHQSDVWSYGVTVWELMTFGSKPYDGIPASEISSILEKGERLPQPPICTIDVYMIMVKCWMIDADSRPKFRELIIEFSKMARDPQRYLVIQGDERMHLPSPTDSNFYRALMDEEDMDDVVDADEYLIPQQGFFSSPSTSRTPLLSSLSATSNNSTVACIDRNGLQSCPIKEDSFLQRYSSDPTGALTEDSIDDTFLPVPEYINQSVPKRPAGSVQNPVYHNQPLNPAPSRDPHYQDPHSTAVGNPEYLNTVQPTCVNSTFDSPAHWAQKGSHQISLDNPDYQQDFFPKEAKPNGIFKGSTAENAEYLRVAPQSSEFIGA
Experiment: Proliferation experiment of Ba/F3 cell line, EGFR-V769_D770insASV (CellTiter-Glo)
Type: cell-based
Conditions: cultured for 72 hrs with compound, CTG analysis, read-out: Ba/F3 EGFR-V769_D770insASV IC50
Protocol: Proliferation Experiment of Ba/F3 Cell Line (I) Reagents and Materials […] (IV) Experimental Procedures 1. Cell Culture and Inoculation: • (1) Cells in the logarithmic growth phase were harvested and counted using a platelet counter. […] Data were analyzed using GraphPad Prism 7.0 software and fitted data were regressed using non-linear S-curves to obtain dose-response curves from which IC50 values (in nM) were calculated.
Label key: Fulfilled means GI50 under 40 nM; Not fulfilled means GI50 of 40 nM or more.

Strictly below 40 nM: is that where GI50 of C=CC(=O)Nc1cc2c(Nc3ccnc(-c4ccc(F)cc4F)c3)ncnc2cc1OCCCN1CCN(C)CC1 [Example 79] sits?
Fulfilled

Here is the next compound: C=CC(=O)Nc1cc2c(Nc3cccc(-c4c(F)cccc4F)c3)ncnc2cc1OCCCN1CC(N(C)C)C1 [Example 36]
Not fulfilled
